Test system: récepteurs surrénaliens de l'angiotensine II
Experiment summary: Displacement of radioligand [125I]-SIAII specifically bound to rat adrenal angiotensin II receptors
Assay type: binding
Condition info: competitor 1E-7M, rat adrenal homogenate, 60 min at 25°C, 0.1 µM
The compounds listed here are annotated with their % de déplacement du ligand marqué.

Compound | % de déplacement du ligand marqué (%)
CCCCc1nc(C)nc(SCC(=O)OCC)c1Cc1ccc(NC(=O)c2ccccc2S(=O)(=O)O)cc1 [Exemple 61] | 63
CCCc1nc(C)n(CC(=O)O)c(=O)c1Cc1ccc(NC(=O)c2c(Cl)ccc(Cl)c2C(=O)O)cc1 [Exemple 14] | 38
CCCc1nc(C)nc(OC(=O)N(C)C)c1Cc1ccc(NC(=O)c2ccccc2S(=O)(=O)O)cc1 [Exemple 27] | 20
CCCCc1nc(-c2ccccc2)nc(SCCO)c1Cc1ccc(NC(=O)c2ccccc2S(=O)(=O)O)cc1 [Exemple 77] | 4
CCCc1nc(C)nc(SCC(=O)OCC)c1Cc1ccc(NC(=O)c2ccccc2S(=O)(=O)O)cc1 [Exemple 24] | 62
CCCCc1nc(-c2ccccc2)nc(SCC(=O)OCC)c1Cc1ccc(NC(=O)c2ccccc2S(=O)(=O)O)cc1 [Exemple 75] | 0
CCCc1nc(C)nc(N2CCOCC2)c1Cc1ccc(NC(=O)c2ccccc2S(=O)(=O)O)cc1 [Exemple 56] | 59
CCCCc1nc(C)nc(SCCO)c1Cc1ccc(NC(=O)c2ccccc2S(=O)(=O)O)cc1 [Exemple 55] | 60
CCCCc1nc(C(C)C)nc(SCC(=O)OCC)c1Cc1ccc(NC(=O)c2ccccc2S(=O)(=O)O)cc1 [Exemple 76] | 37
CCCc1nc(C)n(CC(=O)OCC)c(=O)c1Cc1ccc(NC(=O)c2ccccc2S(=O)(=O)O)cc1 [Exemple 13] | 64
CCCCc1nc(C(C)C)nc(SCCO)c1Cc1ccc(NC(=O)c2ccccc2S(=O)(=O)O)cc1 [Exemple 78] | 41
CCCc1nc(C)n(CC(=O)OCC)c(=O)c1Cc1ccc(-c2ccccc2-c2nn[nH]n2)cc1 [Exemple 32] | 67
CCCc1nc(C)nc(OCCO)c1Cc1ccc(-c2ccccc2C(=O)O)cc1 [Exemple 16] | 31
CCCCc1nc(C)nc(N)c1Cc1ccc(NC(=O)c2ccccc2S(=O)(=O)O)cc1 [Exemple 57] | 69
CCCc1nc(C)nc(SC)c1Cc1ccc(NC(=O)c2ccccc2S(=O)(=O)O)cc1 [Exemple 59] | 57
CCCc1nc(C)nc(SCCO)c1Cc1ccc(NC(=O)c2ccccc2S(=O)(=O)O)cc1 [Exemple 54] | 65
CCCc1nc(C)nc(N2CCN(c3ccccc3OC)CC2)c1Cc1ccc(NC(=O)c2ccccc2S(=O)(=O)O)cc1 [Exemple 58] | 53
CCCc1nc(C)nc(SCC(=O)OCC)c1Cc1ccc(-c2ccccc2-c2nn[nH]n2)cc1 [Exemple 33] | 62
CCCc1nc(C)nc(OC)c1Cc1ccc(-c2ccccc2-c2nn[nH]n2)cc1 [Exemple 31] | 51
